# STUDY SYSTEM: Beta-secretase 1 (Homo sapiens)
# Sequence (P56817 whole entry): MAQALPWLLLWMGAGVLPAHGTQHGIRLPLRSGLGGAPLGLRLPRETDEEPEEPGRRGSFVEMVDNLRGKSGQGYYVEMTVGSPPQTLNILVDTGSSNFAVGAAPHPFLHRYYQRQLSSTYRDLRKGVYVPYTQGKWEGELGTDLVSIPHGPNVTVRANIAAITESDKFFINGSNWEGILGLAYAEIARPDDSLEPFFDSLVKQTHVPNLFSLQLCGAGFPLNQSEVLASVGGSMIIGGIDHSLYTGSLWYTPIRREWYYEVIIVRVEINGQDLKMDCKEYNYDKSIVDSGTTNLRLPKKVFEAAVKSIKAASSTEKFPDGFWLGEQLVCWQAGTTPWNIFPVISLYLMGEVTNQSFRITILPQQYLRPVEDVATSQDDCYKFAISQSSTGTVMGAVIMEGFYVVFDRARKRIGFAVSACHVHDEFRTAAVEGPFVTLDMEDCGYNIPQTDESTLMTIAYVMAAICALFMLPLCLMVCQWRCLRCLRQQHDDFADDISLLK
# TEST: Inhibition of BACE1 expressed in HEK cells by cell-based assay
# Design: species or system HEK293
PROPERTY LABEL: IC50 (nM)

The examples below pair each entry with its known result.
[[record]]
molecule = "CC(C)(C)COc1cc(F)c2c(c1)[C@]1(COCCC(N)=N1)c1cc(-c3cccnc3F)ccc1O2"
endpoint_result = 7

[[record]]
molecule = "NC1=N[C@@]2(COCC1)c1cc(-c3cccnc3F)ccc1Oc1cnc(-c3ccnc(F)c3)cc12"
endpoint_result = 1


P. NC1=N[C@@]2(CCOC1)c1cc(-c3cccnc3F)ccc1Oc1cnc(-c3ccc(F)c(F)c3)cc12
Q. NC1=N[C@@]2(CCOC1)c1cc(-c3cccnc3F)ccc1Oc1cnc(C3CCC(F)(F)C3)cc12 (some centres undefined)
q: // pick larger IC50 from pair: P vs Q Answer format: the label of the selected item.
a: P
(P: 19 nM, Q: 4 nM)
